assayed.system: human MCH receptor (Homo sapiens, UniProt Q99705)
Construct: expressed in transfected cells
Sequence (Q99705 whole entry): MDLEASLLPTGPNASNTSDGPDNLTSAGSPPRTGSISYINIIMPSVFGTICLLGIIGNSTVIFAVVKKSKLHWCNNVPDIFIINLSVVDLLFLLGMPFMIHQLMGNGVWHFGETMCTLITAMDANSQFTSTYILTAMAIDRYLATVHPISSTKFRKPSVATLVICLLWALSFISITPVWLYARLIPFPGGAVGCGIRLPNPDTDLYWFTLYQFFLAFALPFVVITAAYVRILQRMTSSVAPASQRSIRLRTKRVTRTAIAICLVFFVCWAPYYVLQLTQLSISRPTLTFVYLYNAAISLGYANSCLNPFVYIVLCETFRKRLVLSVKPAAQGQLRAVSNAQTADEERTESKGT
test.summary: calcium mobilization assay (FLIPR), functional IC50 of MCH1R antagonists
Type: cell-based
test.conditions: recombinant HEK293 cell line expressing the human MCH receptor; calcium flux after addition of agonist (MCH); read-out: IC50
Source text: A difference from the reference was, however, the use of the plasmid pEAK8 from EDGE Biosystems (USA) for the construction of the expression vector. The host used for the transfection was a transformed HEK cell line named “PEAK Stable Cells” (likewise from EDGE Biosystems). […]
measurement.name: IC50 (nM)
Give the number; nM is assumed, so skip it.

Exercise: Look at this compound and give its reported IC50. CN1CCCC1c1ccc2c(c1)CC[C@H](N(C)C(=O)c1ccc(OCC3CC3)cn1)C2 (stereo partly shown) [Example 5-10]
Key: 646

Exercise: Look at this compound and give its reported IC50. CC1CCC(CNCc2ccc3c(c2)CC[C@H](N(C)C(=O)c2ccc(OCC4CC4)cc2)C3)O1 (stereo partly shown) [Example 1-12]
Key: 165

Exercise: Look at this compound and give its reported IC50. CCCCOc1ccc(C(=O)N(C)[C@H]2CCc3cc(CNCC4CCOCC4)ccc3C2)cc1 [Example 2-06]
Key: 146

Exercise: Look at this compound and give its reported IC50. CN(C(=O)c1ccc(OCC2CC2)cn1)[C@H]1CCc2cc(CN3CCC(C)(C)CC3)ccc2C1 [Example 7-28]
Key: 152

Exercise: Look at this compound and give its reported IC50. CN(C(=O)c1ccc(OCC2CC2)cc1)[C@H]1CCc2cc(CNCC3CCCOC3)ccc2C1 (stereo partly shown) [Example 1-07]
Key: 154

Exercise: Look at this compound and give its reported IC50. O=C(N[C@H]1CCc2cc(CN3CCCCCC3)ccc2C1)c1ccc(OCC2CCC2)cc1 [Example 6-08]
Key: 168

Exercise: Look at this compound and give its reported IC50. C[C@H]1CC[C@H](c2ccc3c(c2)CC[C@H](N(C)C(=O)c2ccc(OCC4CC4)cc2)C3)N1C [Example 5-04]
Key: 134
